TARGET SYSTEM: Prostaglandin E2 receptor EP2 subtype (Homo sapiens) (UniProt P43116)
Sequence (P43116 whole entry): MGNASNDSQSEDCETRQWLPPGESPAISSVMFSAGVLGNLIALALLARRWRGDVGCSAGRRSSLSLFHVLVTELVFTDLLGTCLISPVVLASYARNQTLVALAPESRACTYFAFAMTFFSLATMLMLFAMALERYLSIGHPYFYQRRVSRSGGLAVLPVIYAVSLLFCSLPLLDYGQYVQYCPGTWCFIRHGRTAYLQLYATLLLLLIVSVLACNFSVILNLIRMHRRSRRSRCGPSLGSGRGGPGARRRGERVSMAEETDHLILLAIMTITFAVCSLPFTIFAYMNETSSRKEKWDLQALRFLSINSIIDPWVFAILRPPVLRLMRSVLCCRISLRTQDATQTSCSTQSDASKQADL
PROTOCOL SUMMARY: Antagonist activity at EP2 receptor (unknown origin) expressed in rat C6 cells assessed as inhibition of PGE2-induced response
Assay type: cell-based
PROPERTY LABEL: Kb (nM)

Cc1cc2cc(F)ccc2n1CCNC(=O)c1ccc(N2CCOCC2)cc1: 14.9

a = CC(=O)Oc1ccc(C(=O)NCCn2c(C)cc3ccccc32)cc1
b = CCNc1ncc(C(=O)NCCn2c(C)cc3ccccc32)cn1
c = CCNc1ccc(C(=O)NCCn2c(C)cc3ccccc32)cc1C(F)(F)F
d = Cc1cc2ccccc2n1CCNC(=O)c1ccc(CN)cc1
Arrange the 4 entries by Kb so the values rise. Note for the reader: the ranking is given by listing the labels in the order requested. c, b, a, d

These data points were gathered from ChEMBL document CHEMBL3286257.
